Collected literature values of pIC50 measured for ROCK2 (Homo sapiens, UniProt O75116).
Sequence (O75116 whole entry, species assumed): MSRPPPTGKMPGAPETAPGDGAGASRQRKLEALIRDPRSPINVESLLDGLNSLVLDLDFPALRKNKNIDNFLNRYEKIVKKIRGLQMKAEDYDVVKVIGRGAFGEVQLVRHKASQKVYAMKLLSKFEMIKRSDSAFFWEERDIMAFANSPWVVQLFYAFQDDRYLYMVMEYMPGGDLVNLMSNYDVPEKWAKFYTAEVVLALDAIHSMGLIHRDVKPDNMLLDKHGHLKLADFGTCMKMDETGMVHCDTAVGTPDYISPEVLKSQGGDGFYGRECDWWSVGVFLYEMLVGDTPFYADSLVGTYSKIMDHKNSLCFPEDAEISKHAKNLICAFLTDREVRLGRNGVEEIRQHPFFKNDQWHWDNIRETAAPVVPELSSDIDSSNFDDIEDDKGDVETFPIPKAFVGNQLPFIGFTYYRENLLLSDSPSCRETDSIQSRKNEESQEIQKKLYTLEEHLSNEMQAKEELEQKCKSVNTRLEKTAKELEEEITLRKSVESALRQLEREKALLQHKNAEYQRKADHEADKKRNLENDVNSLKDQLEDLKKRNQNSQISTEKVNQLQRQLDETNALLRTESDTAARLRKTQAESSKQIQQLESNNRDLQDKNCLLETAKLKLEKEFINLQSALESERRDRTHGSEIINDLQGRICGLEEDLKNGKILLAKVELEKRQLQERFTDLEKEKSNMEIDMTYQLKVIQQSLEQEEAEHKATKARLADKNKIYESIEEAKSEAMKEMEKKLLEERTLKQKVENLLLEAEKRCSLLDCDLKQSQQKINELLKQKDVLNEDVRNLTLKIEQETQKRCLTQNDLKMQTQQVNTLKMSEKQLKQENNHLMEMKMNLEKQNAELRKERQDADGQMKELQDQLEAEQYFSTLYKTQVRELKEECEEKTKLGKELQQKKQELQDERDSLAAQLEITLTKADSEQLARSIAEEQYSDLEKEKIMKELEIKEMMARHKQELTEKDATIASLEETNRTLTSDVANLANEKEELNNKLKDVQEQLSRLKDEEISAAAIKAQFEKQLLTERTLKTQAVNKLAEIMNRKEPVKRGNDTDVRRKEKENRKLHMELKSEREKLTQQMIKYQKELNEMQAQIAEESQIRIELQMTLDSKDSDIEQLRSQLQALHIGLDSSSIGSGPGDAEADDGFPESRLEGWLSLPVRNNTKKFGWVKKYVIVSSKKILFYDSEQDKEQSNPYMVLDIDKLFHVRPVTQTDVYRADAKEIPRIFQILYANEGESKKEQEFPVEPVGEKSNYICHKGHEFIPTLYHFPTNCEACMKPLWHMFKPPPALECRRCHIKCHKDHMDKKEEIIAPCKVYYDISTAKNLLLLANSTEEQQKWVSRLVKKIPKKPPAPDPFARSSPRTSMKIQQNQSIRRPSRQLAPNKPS
Interpret pIC50 as the negative base-10 log of the concentration measured in mol/L.

Guide cases for pIC50, answers given:
[
  {
    "itemSmiles": "O=C(OCc1ccccc1)N1Cc2ccc(-c3nccc(Nc4ccc(-c5cn[nH]c5)cc4)n3)cc2C1",
    "reportedMeasurement": 6.77
  },
  {
    "itemSmiles": "NC(=O)c1cccnc1Oc1ccc(CC(=O)Nc2nnc(-c3ccccc3)s2)cc1",
    "reportedMeasurement": 6.38
  }
]

Give the measured pIC50 of Cc1cncc2sc(NC(=O)[C@@H]3C[C@H]3c3ccccc3)cc12 . 7.74
